- METHOD DESCRIPTION: NCI Yeast Anticancer Drug Screen. Data for the cln2 rad14 strain (AID 165);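 note: 0% = growth equal to vehicle treated cultures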
- MEASUREMENT CONTEXT: S. cerevisiae cln2 rad14 strain, at 50.0 µM
The panel holds about 79,000 compounds, 15% with a hit somewhere; the sample as a whole holds those more often. Activity calls are given as the source filed them. Cut-off read from the data, not from the text of the source: active = growth inhibition above about 70%; inactive = the rest.
Select the correct class. Options are yes (1) = active, no (0) = inactive and nothing else.

Which outcome did this test record for the compound C=CS(=O)(=O)CCCCCCCCCCCCCC ?
no (0)

Which outcome did this test record for the compound CCCCCC(=O)OCCOCCOC ?
no (0)

Which outcome did this test record for the compound O=C(Nc1ccccc1)Nc1ccc2ccccc2c1 ?
no (0)

Which outcome did this test record for the compound CC(=O)Nc1ccc(/C=N/NC(=O)COCC(=O)N/N=C/c2ccc(NC(C)=O)cc2)cc1 ?
yes (1)

Which outcome did this test record for the compound CC(C)(CS(C)(=O)=O)C(=O)O ?
no (0)

====

Collected growth inhibition values appear next to each entry.
- METHOD DESCRIPTION: NCI Yeast Anticancer Drug Screen. Data for the mlh1 rad18 strain (AID 175)
- MEASUREMENT CONTEXT: S. cerevisiae mlh1 rad18 strain growth inhibition; at 50.0 µM; active compounds read high
- Experimental: Growth inhibition of yeast strains with defined genetic alterations is measured as a screen for potential anti-cancer activity. Selected strains with alterations in DNA damage repair or cell cycle control were exposed to compounds and growth inhibition was measured relative to vehicle treated controls. The strain used in this assay is mlh1 rad18
The panel holds about 79,000 compounds, 15% with a hit somewhere; the sample as a whole holds those more often.
Provide the reading as a plain figure in %.

Would you please look over these solved cases?
compound=CCOC(CNCCC(=O)OC)OCC measured_number=-29.1
compound=Cc1cc([N+](=O)[O-])c(NCCOC(=O)c2ccc([N+](=O)[O-])cc2)c([N+](=O)[O-])c1 measured_number=-10.7
compound=COc1ccc(OC)c(NC(=O)OCc2ccc3c(c2)OCO3)c1 measured_number=-4.7
compound="N#CC(N)c1ccc(OCCCCCCCCCCOc2ccc(C(N)C#N)cc2)cc1 (stereo not given)" measured_number=-20.8
compound=CC(=O)N/N=C/c1ccc([N+](=O)[O-])s1 measured_number=45.5

Quickly give me recorded growth inhibition for O=[N+]([O-])c1ccc(SC2=NCCCN2C2CCCCC2)c(Cl)c1
-9

Quickly give me recorded growth inhibition for O=C(NN1C(=O)C(Cl)C1c1ccccc1O)c1ccccc1O (stereo not given)
-29.4

Quickly give me recorded growth inhibition for CCOC(=O)c1[nH]c(COC(C)=O)c2c1CCCCCCCCCC2
-12.3

Quickly give me recorded growth inhibition for O=C(O)C(O)C(O)C(O)C(O)C(=O)O.[Cu+2] (stereo not given)
15.2

====

- METHOD DESCRIPTION: NCI Yeast Anticancer Drug Screen. Data for the rad50 strain (AID 155);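 note: 0% = growth of vehicle-only cultures of the same strain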
- MEASUREMENT CONTEXT: S. cerevisiae rad50 strain growth inhibition; at 50.0 µM
This is part of a sample that, as a whole, favours compounds with a hit. Of some 79,000 tested, about 15% had one in any assay. Calls of active or inactive are those of the source. Rule as the data show it: active = growth inhibition above about 70%; inactive = the rest.
Select the correct class. Options are active, inactive and nothing else.

Which outcome did this test record for the compound CC(=O)c1ccc(C2CCC[C@H]2c2ccc(C(C)=O)cc2)cc1 (stereo partly drawn) ?
inactive

Which outcome did this test record for the compound CCCN(CCC)CCCCCCCCN ?
inactive
